logP overview
Assay: Measurement of logP values by HPLC on reversed phase columns (EEC directive 79/831 Annex V.A8)
Type: physicochemical
Conditions: pH 2.7
measured endpoint: logP

C#CCN(c1cccc(F)c1)c1ncnc(-c2ccnc(C(=S)N(C)CC)c2)n1 [B345]
3.25
CCC1CCCCN1C(=O)c1cc(-c2ncnc(Nc3cccc(Cl)c3)n2)ccn1 (centres unmarked) [Example B139]
3.8
CCN(C)C(=O)c1cc(-c2ncnc(Nc3ccc(F)c(Cl)c3)n2)ccn1 [Example B207]
2.75
CCN(CC)C(=O)c1cccc(-c2ccnc(Nc3ccnc(Cl)c3)n2)n1 [Example A33]
2.6
CCN(C)C(=O)c1cc(-c2ncnc(Nc3ccc(Cl)c(C(F)F)c3)n2)ccn1 [Example B386]
2.88
CCN(C)C(=O)c1cc(-c2ncnc(Nc3ccc(F)cc3)n2)ccn1 [Example B20]
2.28
CCN(CC)C(=O)c1cc(-c2ncnc(Nc3cccc(COC)c3)n2)ccn1 [Example B240]
2.48
COCc1cccc(Nc2ncnc(-c3ccnc(C(=O)N(C)CCC#N)c3)n2)c1 [Example B239]
1.94
CN(CCC#N)C(=O)c1cc(-c2ncnc(Nc3cccc(C(F)F)c3)n2)ccn1 [Example B284]
2.25
COCC(=O)N(c1ccccc1)c1ncnc(-c2ccnc(C(=O)N(C)CC3CC3)c2)n1 [Example B401]
2.37
CN(CCC#N)C(=O)c1cc(-c2ncnc(Nc3ccc(F)cc3)n2)ccn1 [Example B14]
2.14
O=C(NC1CC1)c1cc(-c2ncnc(Nc3cccc(Cl)c3)n2)ccn1 [Example B57]
3.05
CCCCN(C)C(=O)c1cc(-c2ncnc(Nc3cccc(F)c3)n2)ccn1 [Example B376]
3.09
CCCNC(=O)c1cc(-c2ncnc(Nc3cccc(Cl)c3)n2)ccn1 [B103]
3.62
CCN(C)C(=O)c1cc(-c2ncnc(Nc3ccc(C)c(Cl)c3)n2)ccn1 [Example B236]
3.02
CCN(CC)C(=O)c1cc(-c2ncnc(Nc3cccc(OC(F)(F)C(F)F)c3)n2)ccn1 [Example B348]
3.29
CCN(CC)C(=O)c1cc(-c2ncnc(Nc3ccc(F)cc3)n2)ccn1 [Example B15]
2.6
CC1CCC(C)N1C(=O)c1cc(-c2ncnc(Nc3cccc(Cl)c3)n2)ccn1 (centres unmarked) [Example B141]
3.64
CCC(=NOC(C)C1CC1)c1cc(-c2ncnc(Nc3cccc(Cl)c3)n2)ccn1 (mixture of isomers) [B84]
6.24
CC(C)N(C)C(=O)c1cc(-c2ncnc(Nc3cccc(C(F)F)c3)n2)ccn1 [Example B290]
2.65
COC(=O)c1cc(-c2ncnc(Nc3ccc(C)c(Cl)c3)n2)ccn1 [B419]
3.17
CN(CC1CC1)C(=O)c1cc(-c2ncnc(Nc3cccc(Cl)c3)n2)ccn1 [Example B133]
3.15
NC(=S)c1cc(-c2ncnc(Nc3cccc(Cl)c3)n2)ccn1 [Example B119]
3.12
CC(=O)Nc1cccc(Nc2ncnc(-c3ccnc(C(=O)N(C)CC4CC4)c3)n2)c1 [B306]
1.94
CCCNC(=O)c1cc(-c2ncnc(Nc3cccc(F)c3)n2)ccn1 [B323]
3.17
CN(CC(F)F)C(=O)c1cc(-c2ncnc(Nc3ccsc3)n2)ccn1 [Example C21]
2.46
CC(=NO)c1cc(-c2ncnc(Nc3cccc(Cl)c3)n2)ccn1 (mixture of isomers) [Example B74]
2.8
CCCCCCN(CCCCCC)C(=O)c1cc(-c2ncnc(Nc3cccc(Cl)c3)n2)ccn1 [B174]
6.69
CC1CCCN(C(=O)c2cc(-c3ncnc(Nc4cccc(Cl)c4)n3)ccn2)C1 (centres unmarked) [Example B135]
3.48
CCN(OC)C(=O)c1cc(-c2ncnc(Nc3cccc(C(F)F)c3)n2)ccn1 [B413]
2.64
CCC(COC)NC(=O)c1cc(-c2ncnc(Nc3ccc(C)c(Cl)c3)n2)ccn1 (centres unmarked) [B229]
4.24
CN(C)C(=O)c1cc(-c2ncnc(Nc3cccc(C(F)(F)F)c3)n2)ccn1 [Example B355]
2.58
O=C(NCC(F)(F)F)c1cc(-c2ncnc(Nc3cccc(Cl)c3)n2)ccn1 [B117]
3.67
O=C(NCC1CC1)c1cc(-c2ncnc(Nc3cccc(Cl)c3)n2)ccn1 [B99]
3.73
CC(C)N(C)C(=O)c1cc(-c2ncnc(Nc3cccc(Cl)c3)n2)ccn1 [Example B158]
2.96

* * *

Assay: Measurement of logP values by HPLC on reversed phase columns (EEC directive 79/831 Annex V.A8)
Type: physicochemical
Conditions: pH 2.7
measured endpoint: logP

CCC(COC)NC(=O)c1cc(-c2ncnc(Nc3cccc(SC)c3)n2)ccn1 (stereo not shown) [B216]
3.69
CCCCN(CC)C(=O)c1cc(-c2ncnc(Nc3cccc(Cl)c3)n2)ccn1 [Example B162]
3.87
CCOc1cccc(Nc2ncnc(-c3ccnc(C(=O)N(C)CC)c3)n2)c1 [Example B254]
2.6
CCCCCNC(=O)c1cc(-c2ncnc(Nc3cccc(Cl)c3)n2)ccn1 [B67]
4.35
CCN(C)C(=S)c1cc(-c2ncnc(Nc3ccccc3)n2)ccn1 [Example B318]
2.73
CC(C)C(C)NC(=O)c1cc(-c2ncnc(Nc3cccc(Cl)c3)n2)ccn1 (stereo not shown) [B62]
4.3
CCN(C)C(=O)c1cc(-c2ncnc(Nc3cccc(OC(F)(F)F)c3)n2)ccn1 [Example B268]
3
CC(=NNCC(F)(F)F)c1cc(-c2ncnc(Nc3cccc(Cl)c3)n2)ccn1 [Example B76]
3.58
O=C(NC1CCC1)c1cc(-c2ncnc(Nc3cccc(Cl)c3)n2)ccn1 [Example B113]
3.89
CN(CCC#N)C(=O)c1cc(-c2ncnc(Nc3ccc(F)c(C(F)F)c3)n2)ccn1 [Example B397]
2.37
CCCN(C)C(=O)c1cc(-c2ncnc(Nc3ccc(F)c(C(F)F)c3)n2)ccn1 [Example B399]
2.86
CCC(=NOCC1CC1)c1cc(-c2ncnc(Nc3cccc(Cl)c3)n2)ccn1 (mixture of isomers) [Example B54]
5.49
C#CC(C)ON=C(C)c1cc(-c2ncnc(Nc3cccc(Cl)c3)n2)ccn1 (mixture of isomers) [B30]
4.47
CCCN(C)C(=O)c1cc(-c2ncnc(Nc3cccc(OC(F)F)c3)n2)ccn1 [Example B299]
2.86
CCC(C)NC(=O)c1cc(-c2ncnc(Nc3ccc(C)c(Cl)c3)n2)ccn1 (stereo not shown) [B232]
4.49
CN(CC1CC1)C(=S)c1cc(-c2ncnc(Nc3cccc(C(F)F)c3)n2)ccn1 [Example B331]
3.37
O=C(NC1CCCCC1)c1cc(-c2ncnc(Nc3cccc(Cl)c3)n2)ccn1 [B56]
4.46
CCCN(CCC)C(=O)c1cc(Nc2nccc(-c3ccnc(C(=O)N(CCC)CCC)c3)n2)ccn1 [Example A12]
2.54
CCN(CCO)C(=O)c1cc(-c2ncnc(Nc3cccc(Cl)c3)n2)ccn1 [Example B164]
2.25
C#CCON=C(CC)c1cc(-c2ncnc(Nc3cccc(Cl)c3)n2)ccn1 (mixture of isomers) [B80]
4.73
CC(C)N(C)C(=O)c1cc(-c2ncnc(Nc3ccc(Cl)c(C(F)F)c3)n2)ccn1 [Example B391]
3.15
O=C(c1cc(-c2ncnc(Nc3cccc(Cl)c3)n2)ccn1)N1CCCC(O)C1 (stereo not shown) [Example B140]
2.2
CC(C)CN(C)C(=O)c1cc(-c2ncnc(Nc3cccc(F)c3)n2)ccn1 [Example B6]
2.92
CN(CC(F)F)C(=O)c1cc(-c2ncnc(Nc3cccc(Cl)c3)n2)ccn1 [Example B373]
3.06
C=CCN(C)C(=O)c1cc(-c2ccnc(Nc3ccnc(Cl)c3)n2)ccn1 [Example A25]
2.13
COCCCNC(=O)c1cc(-c2ncnc(Nc3cccc(Cl)c3)n2)ccn1 [B88]
3.15
O=C(c1cc(-c2ncnc(Nc3cccc(Cl)c3)n2)ccn1)N1CCCCC1CO (stereo not shown) [Example B165]
2.48
CN(CC1CCCO1)C(=O)c1cc(-c2ncnc(Nc3cccc(Cl)c3)n2)ccn1 (stereo not shown) [Example B160]
2.76
CC(C)N(C)C(=O)c1cc(-c2ccnc(Nc3ccnc(Cl)c3)n2)ccn1 [Example A28]
2.13
CCN(CC)C(=O)c1cc(-c2ncnc(Nc3cccc(C(F)(F)F)c3)n2)ccn1 [Example B346]
3.23
CN(C(=O)c1cc(-c2ncnc(Nc3cccc(Cl)c3)n2)ccn1)C1CCCCC1 [Example B144]
3.89
CC(=NNc1ncc(C(F)(F)F)cc1Cl)c1cc(-c2ncnc(Nc3cccc(Cl)c3)n2)ccn1 [B90]
5.46
COCC(C1CC1)N(C)C(=O)c1cc(-c2ncnc(Nc3ccc(F)c(Cl)c3)n2)ccn1 (stereo not shown) [B210]
3.33
CCCN(C)C(=O)c1cc(-c2ncnc(Nc3cccc(F)c3)n2)ccn1 [Example B3]
2.72

* * *

Assay: Measurement of logP values by HPLC on reversed phase columns (EEC directive 79/831 Annex V.A8)
Assay type: physicochemical
Details: pH 2.7
Would you please tag the item 1 when its logP is 3 or above, and -1 when it is below?

CCN(C)C(=S)c1cc(-c2ncnc(Nc3cccc(OC)c3)n2)ccn1
-1
COC1CCN(C(=O)c2cc(-c3ncnc(Nc4cccc(Cl)c4)n3)ccn2)CC1
-1
O=C(c1cc(-c2ccnc(Nc3ccnc(Cl)c3)n2)ccn1)N1CC=CCC1
-1
CCN(C)C(=O)c1cc(-c2ncnc(Nc3cccc(COC)c3)n2)ccn1
-1
CC(C)CN(C)C(=S)c1cc(-c2ncnc(Nc3ccc(F)c(C(F)F)c3)n2)ccn1
1
CN(CCC#N)C(=O)c1cc(-c2ncnc(Nc3cccc(C(F)(F)F)c3)n2)ccn1
-1
CCN(CC)C(=O)c1cc(-c2ncnc(Nc3ccccc3)n2)ccn1
-1
CC(C)NC(=O)c1cc(-c2ncnc(Nc3ccc(F)c(Cl)c3)n2)ccn1
1
O=C(NC1CCC1)c1cc(-c2ncnc(Nc3ccc(F)c(Cl)c3)n2)ccn1
1
